All values here come from patent US11197862B2.

- system tested: OCT2 (Homo sapiens)
- Sequence (O15244 1-555): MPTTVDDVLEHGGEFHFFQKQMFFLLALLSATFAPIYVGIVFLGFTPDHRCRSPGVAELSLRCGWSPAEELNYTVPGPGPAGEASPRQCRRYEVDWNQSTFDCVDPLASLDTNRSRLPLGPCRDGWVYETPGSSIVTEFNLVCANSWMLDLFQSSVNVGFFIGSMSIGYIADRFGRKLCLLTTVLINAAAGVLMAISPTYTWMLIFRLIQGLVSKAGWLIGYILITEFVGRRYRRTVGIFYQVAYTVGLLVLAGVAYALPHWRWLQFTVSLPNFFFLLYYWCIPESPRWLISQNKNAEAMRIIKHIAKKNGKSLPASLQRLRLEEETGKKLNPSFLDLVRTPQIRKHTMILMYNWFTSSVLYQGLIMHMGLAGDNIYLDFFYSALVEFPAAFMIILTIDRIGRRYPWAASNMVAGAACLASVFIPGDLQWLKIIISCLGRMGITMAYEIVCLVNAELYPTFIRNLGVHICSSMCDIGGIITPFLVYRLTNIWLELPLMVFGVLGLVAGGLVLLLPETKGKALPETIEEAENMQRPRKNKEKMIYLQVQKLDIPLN
- assay method text: Inhibition of OCT2-mediated metformin uptake in transfected MDCK-II cells
- experimental conditions: read-out: IC50 (μM) (substrate Metformin); OCT2-mediated uptake; metformin 10 μM in HBSS; estimated from 50 μM or regression of seven concentrations (±SEM)
recorded endpoint: IC50 (µM)
The reply should contain only the number, in µM.

Suppose we examine the molecule CC(C)[N+]1(C)[C@@H]2CC[C@H]1CC(OC(=O)C(CO)c1ccccc1)C2.[Br-] (stereo partly shown) ; what IC50 value has been reported?
0.32

====

- system tested: OCT2 (Homo sapiens, UniProt O15244)
- assay method text: Inhibition of OCT2-mediated oxaliplatin uptake in transfected MDCK-II cells (protein-free HBSS)
- experimental conditions: read-out: IC50 or Ki; intrinsic inhibition constant in protein free HBSS; OCT2-mediated oxaliplatin uptake
pIC50: −log10 of the molar value.
recorded endpoint: pIC50

Suppose we examine the molecule CC(C)[N+]1(C)[C@@H]2CC[C@H]1CC(OC(=O)C(CO)c1ccccc1)C2.[Br-] (stereo partly shown) [Ipratropium•Br] ; what pIC50 value has been reported?
> 7.00

====

- system tested: OCT2 (Homo sapiens)
- assay method text: Inhibition of OCT2-mediated oxaliplatin uptake in transfected MDCK-II cells (protein-free HBSS)
- experimental conditions: human, MDCK-II cells transfected with human OCT2, probe oxaliplatin 10 μM
Consider the following molecules; for each one, report its inhibition at 30 min, 5 μM.
The reply should contain only the number, in %.

Suppose we examine the molecule `CC(C)[N+](C)(CCOC(=O)C1c2ccccc2Oc2ccccc21)C(C)C` ; what inhibition at 30 min, 5 μM value has been reported?
103

Suppose we examine the molecule `C[C@@H]1CCO[C@H]2Cn3cc(C(=O)NCc4ccc(F)cc4F)c(=O)c(O)c3C(=O)N12` ; what inhibition at 30 min, 5 μM value has been reported?
83

Suppose we examine the molecule `C#Cc1cccc(Nc2ncnc3cc(OCCOC)c(OCCOC)cc23)c1` ; what inhibition at 30 min, 5 μM value has been reported?
93

Suppose we examine the molecule `C=C1C[C@@H]2[C@H](CC[C@]3(C)C(=O)CC[C@@H]23)[C@@]2(C)C=CC(=O)C=C12` ; what inhibition at 30 min, 5 μM value has been reported?
96

====

- system tested: OCT2 (Homo sapiens)
- assay method text: in vitro
recorded endpoint: inhibition at 5 min, 50 μM (%)
The reply should contain only the number, in %.

Suppose we examine the compound `CC(C)[N+](C)(CCOC(=O)C1c2ccccc2Oc2ccccc21)C(C)C` ; what inhibition at 5 min, 50 μM value has been reported?
96

Suppose we examine the compound `N=C(N)c1ccc(OCCCCCOc2ccc(C(=N)N)cc2)cc1` ; what inhibition at 5 min, 50 μM value has been reported?
91

Suppose we examine the compound `C=C1C[C@@H]2[C@H](CC[C@]3(C)C(=O)CC[C@@H]23)[C@@]2(C)C=CC(=O)C=C12` ; what inhibition at 5 min, 50 μM value has been reported?
94

Suppose we examine the compound CCNC(=O)[C@@H]1CCCN1C(=O)[C@H](CCCNC(=N)N)NC(=O)[C@H](CC(C)C)NC(=O)[C@@H](CC(C)C)NC(=O)[C@H](Cc1ccc(O)cc1)NC(=O)[C@H](CO)NC(=O)[C@H](Cc1c[nH]c2ccccc12)NC(=O)[C@H](Cc1c[nH]cn1)NC(=O)[C@@H]1CCC(=O)N1 [Leuprolide] ; what inhibition at 5 min, 50 μM value has been reported?
91

====

- system tested: OCT2 (Homo sapiens, UniProt O15244)
- assay method text: Inhibition of OCT2-mediated ASP+ uptake (Kido et al., Giacomini group)
- experimental conditions: human, cell line expressing human OCT2 (cell line not given), probe ASP+ 5 μM
recorded endpoint: potency estimated from few doses

Suppose we examine the molecule `Cc1ccc(NC(=O)c2ccc(CN3CCN(C)CC3)cc2)cc1Nc1nccc(-c2cccnc2)n1` ; what potency estimated from few doses value has been reported?
< 100 nM

Suppose we examine the molecule Clc1ccc(COC(Cn2ccnc2)c2ccc(Cl)cc2Cl)c(Cl)c1 (stereo not drawn) ; what potency estimated from few doses value has been reported?
2000 nM

Suppose we examine the molecule `COc1cc(OC)c(C(=O)CCCN2CCCC2)c(OC)c1` ; what potency estimated from few doses value has been reported?
< 100 nM

Suppose we examine the molecule `N=C(N)c1ccc(OCCCCCOc2ccc(C(=N)N)cc2)cc1` ; what potency estimated from few doses value has been reported?
< 100 nM

Suppose we examine the molecule `CN/C(=N/CCSCc1nc[nH]c1C)NC#N` ; what potency estimated from few doses value has been reported?
26400 nM

Suppose we examine the molecule `CC(C)[N+](C)(CCOC(=O)C1c2ccccc2Oc2ccccc21)C(C)C` ; what potency estimated from few doses value has been reported?
< 100 nM

Suppose we examine the molecule `C=C1C[C@@H]2[C@H](CC[C@]3(C)C(=O)CC[C@@H]23)[C@@]2(C)C=CC(=O)C=C12` ; what potency estimated from few doses value has been reported?
< 100 nM

Suppose we examine the molecule NC1=NCC2c3ccccc3Cc3ccccc3N12 (stereo not drawn) [Epinastine] ; what potency estimated from few doses value has been reported?
580 nM

Suppose we examine the molecule OCC(O)COc1ccc(Cl)cc1 (stereo not drawn) ; what potency estimated from few doses value has been reported?
860 nM

====

- system tested: OCT2 (Homo sapiens, UniProt O15244)
- assay method text: Inhibition of OCT2-mediated metformin uptake in transfected MDCK-II cells
Consider the following molecules; for each one, report its IC50.
The reply should contain only the number, in nM.

Suppose we examine the molecule `C=C1C[C@@H]2[C@H](CC[C@]3(C)C(=O)CC[C@@H]23)[C@@]2(C)C=CC(=O)C=C12` ; what IC50 value has been reported?
2600

Suppose we examine the molecule `N=C(N)c1ccc(OCCCCCOc2ccc(C(=N)N)cc2)cc1` ; what IC50 value has been reported?
2500

Suppose we examine the molecule CCNC(=O)[C@@H]1CCCN1C(=O)[C@H](CCCNC(=N)N)NC(=O)[C@H](CC(C)C)NC(=O)[C@@H](CC(C)C)NC(=O)[C@H](Cc1ccc(O)cc1)NC(=O)[C@H](CO)NC(=O)[C@H](Cc1c[nH]c2ccccc12)NC(=O)[C@H](Cc1c[nH]cn1)NC(=O)[C@@H]1CCC(=O)N1 [Leuprolide] ; what IC50 value has been reported?
3620

Suppose we examine the molecule NC1=NCC2c3ccccc3Cc3ccccc3N12 (stereo not drawn) [Epinastine] ; what IC50 value has been reported?
3900

Suppose we examine the molecule `C[C@@H]1CCO[C@H]2Cn3cc(C(=O)NCc4ccc(F)cc4F)c(=O)c(O)c3C(=O)N12` ; what IC50 value has been reported?
540

Suppose we examine the molecule `C[N+]1(C)[C@@H]2C[C@@H](OC(=O)C(O)(c3cccs3)c3cccs3)C[C@H]1[C@@H]1O[C@@H]12` ; what IC50 value has been reported?
1500
